Exercise: for every item that follows, state its recorded % activity.
target: FGFR4(h) (Homo sapiens); assay: Kinase Profiling Assay; assay type: biochemical; details: peptide 100 μM
Answers are plain numbers, in %.

Observe how each entry below is paired with its result.
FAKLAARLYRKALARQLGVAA [MMI-0300]: 28
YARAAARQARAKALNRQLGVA (Mammal) [MMI-0200]: 75
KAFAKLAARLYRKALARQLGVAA [MMI-0400]: 19

# input for lookup
Complete the entry with % activity for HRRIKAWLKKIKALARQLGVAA (Mammal) [MMI-0500]
3

---

Target: NEK2(h) (Homo sapiens, UniProt P51955)
Construct: purchased Millipore
Sequence (P51955 1-445): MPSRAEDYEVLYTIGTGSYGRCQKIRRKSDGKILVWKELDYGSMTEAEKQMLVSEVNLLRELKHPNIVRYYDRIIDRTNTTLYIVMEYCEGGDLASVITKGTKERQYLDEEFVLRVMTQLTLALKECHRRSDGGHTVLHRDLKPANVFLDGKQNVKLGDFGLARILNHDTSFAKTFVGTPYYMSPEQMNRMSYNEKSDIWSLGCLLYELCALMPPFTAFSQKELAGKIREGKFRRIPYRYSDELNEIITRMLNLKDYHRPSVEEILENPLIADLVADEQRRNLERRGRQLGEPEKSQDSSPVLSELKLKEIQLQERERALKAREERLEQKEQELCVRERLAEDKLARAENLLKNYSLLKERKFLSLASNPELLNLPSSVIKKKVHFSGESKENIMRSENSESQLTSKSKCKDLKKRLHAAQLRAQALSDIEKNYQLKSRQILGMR
Assay: Kinase Profiling Assay
Assay type: biochemical
Conditions: peptide 100 μM
Procedure: Every kinase activity measurement was conducted in duplicate. Specifically, in these assays, a positively charged substrate is phosphorylated with a radiolabeled phosphate group from an ATP if the kinase is not inhibited by an inhibitor peptide. The positively charged substrate then is attracted to a negatively charged filter membrane, quantified with a scintillation counter, and compared to a 100% activity control. […]
measured.parameter: % activity (%)
One number for each entry, in %.

Observe how each entry below is paired with its result.
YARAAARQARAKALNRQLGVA (Mammal) [MMI-0200]: 97
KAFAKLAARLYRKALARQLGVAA [MMI-0400]: 61
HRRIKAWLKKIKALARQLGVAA (Mammal) [MMI-0500]: 0

# input for lookup
Recall the reported % activity of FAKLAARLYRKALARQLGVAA [MMI-0300] when tested on NEK2(h) (Homo sapiens, UniProt P51955).
78

---

biological target: MELK(h) (Homo sapiens); construct: purchased Millipore; experiment: Kinase Profiling Assay; format: biochemical; conditions: peptide 100 μM
Sequence (Q14680 whole entry): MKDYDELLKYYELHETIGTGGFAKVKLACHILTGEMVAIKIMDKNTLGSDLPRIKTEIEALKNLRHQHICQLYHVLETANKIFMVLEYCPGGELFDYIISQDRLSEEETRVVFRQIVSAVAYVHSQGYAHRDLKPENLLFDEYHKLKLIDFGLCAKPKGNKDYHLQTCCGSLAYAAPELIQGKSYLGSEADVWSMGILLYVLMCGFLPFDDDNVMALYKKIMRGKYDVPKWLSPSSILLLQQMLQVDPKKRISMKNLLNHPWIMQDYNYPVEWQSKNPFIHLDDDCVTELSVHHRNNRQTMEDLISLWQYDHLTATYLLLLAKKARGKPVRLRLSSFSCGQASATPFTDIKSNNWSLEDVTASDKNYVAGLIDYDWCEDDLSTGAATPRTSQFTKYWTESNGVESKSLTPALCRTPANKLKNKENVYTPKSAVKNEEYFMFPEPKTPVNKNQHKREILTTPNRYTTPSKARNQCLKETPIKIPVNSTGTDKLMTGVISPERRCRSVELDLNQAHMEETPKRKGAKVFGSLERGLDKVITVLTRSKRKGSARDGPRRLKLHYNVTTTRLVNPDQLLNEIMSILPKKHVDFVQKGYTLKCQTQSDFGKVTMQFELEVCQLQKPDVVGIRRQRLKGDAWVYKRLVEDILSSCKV
No end group written: not given here.
measured.parameter: % activity (%)
Answers are plain numbers, in %.

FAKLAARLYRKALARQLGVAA [MMI-0300]: 16

Each of the following entries comes with a recorded value; kindly state % activity for each.
1. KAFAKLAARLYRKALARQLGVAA [MMI-0400]
2. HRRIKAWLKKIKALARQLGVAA (Mammal) [MMI-0500]
3. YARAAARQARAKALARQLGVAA [MMI-0100]
4. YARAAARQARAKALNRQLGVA (Mammal) [MMI-0200]

1: 17; 2: 0; 3: 74; 4: 59

---

molecular target: SAPK2b(h) (Homo sapiens); construct: purchased Millipore; test: Kinase Profiling Assay; format: biochemical; conditions: peptide 100 μM
Sequence (Q15759 whole entry): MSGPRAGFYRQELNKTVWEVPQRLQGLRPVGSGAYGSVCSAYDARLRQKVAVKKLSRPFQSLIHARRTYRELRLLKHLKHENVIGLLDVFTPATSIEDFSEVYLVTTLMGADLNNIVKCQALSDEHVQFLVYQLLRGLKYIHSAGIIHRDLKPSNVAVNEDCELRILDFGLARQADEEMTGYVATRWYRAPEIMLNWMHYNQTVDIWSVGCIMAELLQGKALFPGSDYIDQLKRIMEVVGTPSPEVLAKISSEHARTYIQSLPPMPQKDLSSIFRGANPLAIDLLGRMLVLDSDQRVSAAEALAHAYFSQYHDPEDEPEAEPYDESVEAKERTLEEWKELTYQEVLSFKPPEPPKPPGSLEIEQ
measured.parameter: % activity
Remember to quote the unit after the number.

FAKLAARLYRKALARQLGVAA [MMI-0300]: 81%
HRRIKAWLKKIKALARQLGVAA (Mammal) [MMI-0500]: 42%

Each of the following entries comes with a recorded value; kindly state % activity for each.
1. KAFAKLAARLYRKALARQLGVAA [MMI-0400]
2. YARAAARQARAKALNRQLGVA (Mammal) [MMI-0200]

1: 82%; 2: 95%

---

target: AMPKα1(h) (Homo sapiens, UniProt Q13131); test: Kinase Profiling Assay; assay type: biochemical; conditions: peptide 100 μM
Sequence (Q13131 whole entry): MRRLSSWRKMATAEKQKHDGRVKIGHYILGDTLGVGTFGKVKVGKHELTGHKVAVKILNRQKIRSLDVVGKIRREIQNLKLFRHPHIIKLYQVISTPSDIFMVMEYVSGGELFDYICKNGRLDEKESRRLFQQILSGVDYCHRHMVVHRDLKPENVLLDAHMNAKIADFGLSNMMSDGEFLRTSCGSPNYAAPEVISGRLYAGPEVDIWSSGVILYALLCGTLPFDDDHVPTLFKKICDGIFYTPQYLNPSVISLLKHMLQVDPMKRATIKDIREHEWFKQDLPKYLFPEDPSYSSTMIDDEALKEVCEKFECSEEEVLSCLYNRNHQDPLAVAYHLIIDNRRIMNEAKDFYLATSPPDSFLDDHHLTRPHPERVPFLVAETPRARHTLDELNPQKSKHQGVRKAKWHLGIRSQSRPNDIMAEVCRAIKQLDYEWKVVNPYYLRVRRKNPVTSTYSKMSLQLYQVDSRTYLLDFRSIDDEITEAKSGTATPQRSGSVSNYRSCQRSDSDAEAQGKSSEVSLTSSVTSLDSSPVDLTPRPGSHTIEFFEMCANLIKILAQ
Sequence (Q9Y478 whole entry partner): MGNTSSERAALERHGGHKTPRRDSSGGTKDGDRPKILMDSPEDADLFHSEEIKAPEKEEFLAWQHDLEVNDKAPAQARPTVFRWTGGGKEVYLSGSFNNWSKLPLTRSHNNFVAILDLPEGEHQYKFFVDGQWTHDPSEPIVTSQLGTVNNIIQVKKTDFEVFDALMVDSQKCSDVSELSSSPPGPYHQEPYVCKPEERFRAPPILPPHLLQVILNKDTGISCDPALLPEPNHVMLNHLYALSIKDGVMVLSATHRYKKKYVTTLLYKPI
Sequence (P54619 whole entry partner): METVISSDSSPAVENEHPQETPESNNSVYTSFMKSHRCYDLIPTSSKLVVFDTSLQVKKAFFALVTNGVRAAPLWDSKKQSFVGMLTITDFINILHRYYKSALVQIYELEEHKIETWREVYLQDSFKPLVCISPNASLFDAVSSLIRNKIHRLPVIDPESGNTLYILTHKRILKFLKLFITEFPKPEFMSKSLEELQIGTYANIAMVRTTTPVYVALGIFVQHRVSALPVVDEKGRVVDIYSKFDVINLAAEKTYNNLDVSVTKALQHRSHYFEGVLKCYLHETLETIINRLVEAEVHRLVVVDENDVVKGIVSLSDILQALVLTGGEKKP
measured.parameter: % activity (%)
One number for each entry, in %.

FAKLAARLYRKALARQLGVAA [MMI-0300]: 71

Each of the following entries comes with a recorded value; kindly state % activity for each.
1. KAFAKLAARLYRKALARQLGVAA [MMI-0400]
2. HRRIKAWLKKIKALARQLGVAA (Mammal) [MMI-0500]
3. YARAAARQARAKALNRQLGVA (Mammal) [MMI-0200]

[87, 35, 108]

---

Biological target: SAPK3(h) (Homo sapiens, UniProt P53778)
Construct: purchased Millipore
Sequence (P53778 1-367): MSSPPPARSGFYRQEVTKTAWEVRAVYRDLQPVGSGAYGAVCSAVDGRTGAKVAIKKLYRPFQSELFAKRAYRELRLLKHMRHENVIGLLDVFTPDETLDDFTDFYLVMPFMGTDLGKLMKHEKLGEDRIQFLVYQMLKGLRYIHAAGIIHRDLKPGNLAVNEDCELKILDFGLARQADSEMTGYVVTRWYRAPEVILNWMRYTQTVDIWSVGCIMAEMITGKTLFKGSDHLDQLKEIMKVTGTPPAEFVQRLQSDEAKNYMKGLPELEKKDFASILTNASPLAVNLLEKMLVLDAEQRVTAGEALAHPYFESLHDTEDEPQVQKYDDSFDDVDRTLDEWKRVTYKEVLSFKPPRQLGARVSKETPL
Assay: Kinase Profiling Assay
Assay type: biochemical
Conditions: peptide 100 μM
Exercise: for every item that follows, state its recorded % activity.
Answers are plain numbers, in %.

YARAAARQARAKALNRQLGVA (Mammal) [MMI-0200]: 97

Each of the following entries comes with a recorded value; kindly state % activity for each.
1. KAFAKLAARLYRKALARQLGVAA [MMI-0400]
2. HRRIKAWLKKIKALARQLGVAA (Mammal) [MMI-0500]
3. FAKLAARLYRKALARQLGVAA [MMI-0300]

79
24
84

---

molecular target: MAPKAP-K2(h) (Homo sapiens); construct: purchased Millipore; assay: Kinase Profiling Assay; type: biochemical; conditions: peptide 100 μM
Sequence (P49137 whole entry): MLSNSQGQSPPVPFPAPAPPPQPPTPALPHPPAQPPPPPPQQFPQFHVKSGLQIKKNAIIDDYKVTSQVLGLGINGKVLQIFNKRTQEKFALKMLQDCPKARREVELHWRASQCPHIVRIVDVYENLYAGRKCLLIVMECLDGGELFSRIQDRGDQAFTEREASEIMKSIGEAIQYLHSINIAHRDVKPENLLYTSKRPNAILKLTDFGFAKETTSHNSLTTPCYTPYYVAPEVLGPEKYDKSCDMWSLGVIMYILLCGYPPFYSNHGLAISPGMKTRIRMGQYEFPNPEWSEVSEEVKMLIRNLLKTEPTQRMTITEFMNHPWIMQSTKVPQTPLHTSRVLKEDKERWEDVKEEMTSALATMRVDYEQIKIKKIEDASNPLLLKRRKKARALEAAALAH
No end group written: not given here.
measured.parameter: % activity (%)
Numbers only, in %.

Observe how each entry below is paired with its result.
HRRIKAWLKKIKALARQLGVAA (Mammal) [MMI-0500]: 9
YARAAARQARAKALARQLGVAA [MMI-0100]: 19

Each of the following entries comes with a recorded value; kindly state % activity for each.
1. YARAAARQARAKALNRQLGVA (Mammal) [MMI-0200]
2. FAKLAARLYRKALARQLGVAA [MMI-0300]
3. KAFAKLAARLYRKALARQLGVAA [MMI-0400]

35
5
5

---

target: PAK4(h) (Homo sapiens); construct: purchased Millipore; assay: Kinase Profiling Assay; type: biochemical; details: peptide 100 μM
Sequence (O96013 whole entry): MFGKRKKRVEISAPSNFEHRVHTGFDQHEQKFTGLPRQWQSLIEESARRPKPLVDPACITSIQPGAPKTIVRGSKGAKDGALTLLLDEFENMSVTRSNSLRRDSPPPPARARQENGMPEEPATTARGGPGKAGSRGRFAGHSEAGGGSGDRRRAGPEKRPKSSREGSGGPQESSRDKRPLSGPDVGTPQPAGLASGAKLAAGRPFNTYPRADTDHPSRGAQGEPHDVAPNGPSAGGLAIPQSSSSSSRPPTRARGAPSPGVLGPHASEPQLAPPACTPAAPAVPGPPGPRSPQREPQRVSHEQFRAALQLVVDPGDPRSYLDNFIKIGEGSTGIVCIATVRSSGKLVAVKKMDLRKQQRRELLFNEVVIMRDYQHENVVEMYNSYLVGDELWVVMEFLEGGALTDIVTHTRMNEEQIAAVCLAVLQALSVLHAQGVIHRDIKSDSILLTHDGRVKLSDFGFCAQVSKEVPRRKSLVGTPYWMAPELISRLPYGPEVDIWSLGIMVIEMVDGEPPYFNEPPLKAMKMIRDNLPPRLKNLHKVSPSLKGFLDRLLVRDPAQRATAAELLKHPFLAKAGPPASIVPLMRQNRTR
No end group written: not given here.
Exercise: for every item that follows, state its recorded % activity.

Observe how each entry below is paired with its result.
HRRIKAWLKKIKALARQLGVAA (Mammal) [MMI-0500]: 86%
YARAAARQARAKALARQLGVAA [MMI-0100]: 92%
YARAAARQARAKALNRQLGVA (Mammal) [MMI-0200]: 98%
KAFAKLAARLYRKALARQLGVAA [MMI-0400]: 89%

# input for lookup
Complete the entry with % activity for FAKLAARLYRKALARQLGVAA [MMI-0300]
94%

---

Exercise: for every item that follows, state its recorded % activity.
Biological target: TAO2(h) (Homo sapiens, UniProt Q9UL54)
Construct: purchased Millipore
Sequence (Q9UL54 1-1235): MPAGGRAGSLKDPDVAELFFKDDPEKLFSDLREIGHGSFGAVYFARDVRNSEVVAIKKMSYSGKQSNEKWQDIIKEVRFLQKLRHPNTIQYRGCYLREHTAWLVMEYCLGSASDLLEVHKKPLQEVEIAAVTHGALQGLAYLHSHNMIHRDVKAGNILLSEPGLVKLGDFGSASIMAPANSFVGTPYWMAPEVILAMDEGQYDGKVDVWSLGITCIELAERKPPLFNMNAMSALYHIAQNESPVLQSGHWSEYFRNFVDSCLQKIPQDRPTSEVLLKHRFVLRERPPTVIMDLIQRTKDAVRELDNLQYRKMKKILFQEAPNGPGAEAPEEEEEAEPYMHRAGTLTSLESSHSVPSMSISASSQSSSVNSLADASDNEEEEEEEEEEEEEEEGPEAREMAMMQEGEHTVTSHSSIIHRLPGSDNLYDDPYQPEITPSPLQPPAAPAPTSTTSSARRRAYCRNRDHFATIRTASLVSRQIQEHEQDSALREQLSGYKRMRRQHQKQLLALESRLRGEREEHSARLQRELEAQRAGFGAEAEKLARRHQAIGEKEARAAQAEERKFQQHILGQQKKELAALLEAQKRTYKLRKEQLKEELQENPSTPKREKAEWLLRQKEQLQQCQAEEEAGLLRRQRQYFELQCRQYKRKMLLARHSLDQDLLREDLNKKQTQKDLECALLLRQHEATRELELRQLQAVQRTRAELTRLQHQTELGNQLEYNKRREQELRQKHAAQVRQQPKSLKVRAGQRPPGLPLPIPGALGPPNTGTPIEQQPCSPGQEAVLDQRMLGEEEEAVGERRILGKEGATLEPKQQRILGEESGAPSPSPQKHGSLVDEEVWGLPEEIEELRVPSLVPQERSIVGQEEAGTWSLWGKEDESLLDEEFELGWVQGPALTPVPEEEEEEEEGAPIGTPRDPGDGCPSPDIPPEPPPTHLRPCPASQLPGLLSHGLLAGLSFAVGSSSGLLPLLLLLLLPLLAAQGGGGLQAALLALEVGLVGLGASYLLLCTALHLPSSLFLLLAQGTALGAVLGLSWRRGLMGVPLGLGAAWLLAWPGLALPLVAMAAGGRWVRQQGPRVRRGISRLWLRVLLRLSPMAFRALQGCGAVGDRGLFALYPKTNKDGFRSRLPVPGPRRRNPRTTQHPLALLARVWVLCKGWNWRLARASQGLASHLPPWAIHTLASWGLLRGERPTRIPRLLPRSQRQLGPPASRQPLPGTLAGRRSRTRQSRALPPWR
Assay: Kinase Profiling Assay
Type: biochemical
Conditions: peptide 100 μM
No end group written: not given here.
Answers are plain numbers, in %.

Observe how each entry below is paired with its result.
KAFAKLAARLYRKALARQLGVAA [MMI-0400]: 74
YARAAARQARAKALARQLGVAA [MMI-0100]: 95
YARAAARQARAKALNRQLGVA (Mammal) [MMI-0200]: 93
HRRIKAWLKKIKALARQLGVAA (Mammal) [MMI-0500]: 15

Complete the entry with % activity for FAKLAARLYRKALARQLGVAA [MMI-0300]
70
